Reported IC50 values are given for each entry in this list.
Sequence of the target: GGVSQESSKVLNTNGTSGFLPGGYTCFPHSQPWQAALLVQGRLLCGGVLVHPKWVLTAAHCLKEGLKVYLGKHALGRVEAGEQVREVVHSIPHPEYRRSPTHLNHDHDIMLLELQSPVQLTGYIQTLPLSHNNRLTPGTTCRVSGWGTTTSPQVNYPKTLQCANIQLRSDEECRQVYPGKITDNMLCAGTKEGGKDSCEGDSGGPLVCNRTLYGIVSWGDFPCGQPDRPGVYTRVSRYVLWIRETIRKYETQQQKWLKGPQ
Numbered stars: 1 amine (or outer) side, 2 acyl side, 3 side chain; on linkers, the order of the positions; unused ones are H or OH. Bridge positions count the residues as written; N and C are the ends. Square brackets hold non-standard residues; d marks the D form. Peptide text beside a SMILES is read from it. * marks the point of attachment. mXylylene = c1cc(C[*:1])cc(C[*:2])c1; Tle = CC(C)(C)[C@H](N)C(=O)O; Heptanoyl = CCCCCCC(=O)*

Q: I would be grateful if you could share the reported IC50 for CC[C@H](C)[C@@H]1NC(=O)[C@H](CO)NC(=O)[C@H](CCC(=O)O)NC(=O)[C@@H](NC(=O)[C@@H](N)CCSC)CSCc2cccc(c2)CSC[C@@H](C(=O)N[C@@H](CCCNC(=N)N)C(=O)N[C@H](C(N)=O)C(C)(C)C)NC1=O [Compound R2010, [mXylyl(2,6)]MCESICR-Tbg-NH2] (H-MCESICR[Tle]-NH2; linker 2-6 via mXylylene; N-terminus assumed) .
A: > 100 µM

Q: Then CCCCCCC(=O)N[C@H]1CSCc2cccc(c2)CSC[C@@H](C(=O)N[C@@H](CCCNC(=N)N)C(=O)N[C@H](C(N)=O)C(C)C)NC(=O)[C@H]([C@@H](C)CC)NC(=O)[C@H](CO)NC(=O)[C@H](CCC(=O)O)NC1=O [Compound R2041, [mXylyl(1,5)]Heptanoyl-CESICRV-NH2] (Heptanoyl-CESICRV-NH2; linker 1-5 via mXylylene) ?
A: > 100 µM

* * *

Target: human plasma kallikrein (Homo sapiens, UniProt P03952)
Construct: purchased Enzyme Research Laboratories HPKa 1303
Sequence (P03952 20-390 limits assumed): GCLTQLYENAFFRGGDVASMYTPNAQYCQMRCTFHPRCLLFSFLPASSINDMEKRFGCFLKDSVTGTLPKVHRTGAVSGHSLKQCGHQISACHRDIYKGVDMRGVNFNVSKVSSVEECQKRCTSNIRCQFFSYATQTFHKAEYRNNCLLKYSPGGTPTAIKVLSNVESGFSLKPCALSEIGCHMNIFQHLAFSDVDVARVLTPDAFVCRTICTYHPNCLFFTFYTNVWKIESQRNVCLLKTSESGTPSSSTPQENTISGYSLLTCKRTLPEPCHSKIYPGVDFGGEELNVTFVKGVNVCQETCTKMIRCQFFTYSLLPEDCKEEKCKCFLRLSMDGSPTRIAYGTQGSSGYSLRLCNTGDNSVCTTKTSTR
Sequence (P03952 391-638 limits assumed): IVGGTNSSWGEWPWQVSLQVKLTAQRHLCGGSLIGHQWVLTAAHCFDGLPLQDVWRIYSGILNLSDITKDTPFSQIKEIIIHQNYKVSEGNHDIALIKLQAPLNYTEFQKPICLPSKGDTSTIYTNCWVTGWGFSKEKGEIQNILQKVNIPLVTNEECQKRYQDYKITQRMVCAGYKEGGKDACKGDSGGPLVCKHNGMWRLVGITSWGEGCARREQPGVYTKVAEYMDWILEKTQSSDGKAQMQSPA
Experiment: Enzyme inhibition assay (fluorogenic substrate H-Pro-Phe-Arg-AMC)
Type: biochemical
Settings: Kallikrein inhibitory activity; 1 nM activated human kallikrein, 500 μM H-Pro-Phe-Arg-AMC, 1 hour room temperature; read-out: Avg. IC50
Source text: Activated human plasma kallikrein (Enzyme Research Laboratories, HPKa 1303) was reacted with H-Pro-Phe-Arg-7-amido-4-methylcoumarin (H-Pro-Pre-Arg-AMC) (a fluorogenic substrate for plasma as well as pancreatic and urinary kallikreins; Bachem I-1295) and candidate inhibitory peptides to determine the IC50 of the inhibitor. […]
Square brackets hold non-standard residues; d marks the D form. Peptide text beside a SMILES is read from it. NMeS = CN[C@@H](CO)C(=O)O
Reported IC50 values are given for each entry in this list.

Some entries whose results are on file:
CC[C@@H](C)[C@@H]1NC(=O)[C@@H]2CCCN2C(=O)CCCCCC/C=C/C[C@@H](C(=O)N[C@@H](CCCNC(=N)N)C(=O)N[C@H](C(N)=O)C(C)C)NC1=O; > 50 µM
CC(C)(C)[C@H](NC(=O)[C@H](CCCNC(=N)N)NC(=O)[C@@H]1CCc2cn(nn2)CCCCCC(=O)N2CCC[C@H]2C(=O)N[C@@H](C2CCCCC2)C(=O)N1)C(N)=O; > 100 µM
CC(=O)N[C@@H](CS)C(=O)N[C@@H](CC(N)=O)C(=O)N[C@@H](Cc1ccc(O)cc1)C(=O)N[C@@H](Cc1c[nH]c2ccccc12)C(=O)N(C)[C@@H](CO)C(=O)N1CCC[C@H]1C(=O)N[C@@H](Cc1c[nH]c2ccccc12)C(=O)N[C@H](C(=O)N[C@@H](C)C(=O)N[C@@H](CS)C(N)=O)[C@@H](C)O [Compound R2237, Ac-CNYW-nMeS-PWTAC-NH2] (Ac-CNYW[NMeS]PWTAC-NH2); > 13.9 µM

API: the following record is the query input.
Q: I would be grateful if you could share the reported IC50 for CC[C@@H](C)[C@@H]1NC(=O)CCCCCCC/C=C/C[C@@H](C(=O)N[C@@H](CCCNC(=N)N)C(=O)N[C@H](C(N)=O)C(C)C)NC1=O .
A: > 75 µM

* * *

In what follows, each item is paired with its pIC50 for Factor Xa (Homo sapiens).
pIC50: −log10 of the molar value. Numbered stars: 1 amine (or outer) side, 2 acyl side, 3 side chain; on linkers, the order of the positions; unused ones are H or OH. Bridge positions count the residues as written; N and C are the ends. Square brackets hold non-standard residues; d marks the D form. Peptide text beside a SMILES is read from it. mXylylene = c1cc(C[*:1])cc(C[*:2])c1; Phg = N[C@H](C(=O)O)c1ccccc1; Tle = CC(C)(C)[C@H](N)C(=O)O; NMeS = CN[C@@H](CO)C(=O)O; Nva = CCC[C@H](N)C(=O)O; Mpa = O=C(O)CCS

Some entries whose results are on file:
CCC[C@H](N)C(=O)N[C@H]1CSCc2cccc(c2)CSC[C@@H](C(=O)N[C@@H](CCCNC(=N)N)C(=O)N[C@H](C(N)=O)C(C)(C)C)NC(=O)[C@H](c2ccccc2)NC(=O)[C@@H]2CCCN2C(=O)[C@H](CCC(=O)O)NC1=O [Compound R2030, [mXylyl(2,6)]Nvl-CEP-Phg-CR-Tbg-NH2] (H-[Nva]CEP[Phg]CR[Tle]-NH2; linker 2-6 via mXylylene); < 4.00
CC[C@H](C)[C@@H]1NC(=O)[C@H](CO)N(C)C(=O)[C@H](CCC(=O)O)NC(=O)[C@@H](NC(=O)[C@@H](N)CCSC)CSCc2cccc(c2)CSC[C@@H](C(=O)N[C@@H](CCCNC(=N)N)C(=O)N[C@H](C(N)=O)C(C)C)NC1=O [Compound R2019, [mXylyl(2,6)]MCE-nMeS-ICRV-NH2] (H-MCE[NMeS]ICRV-NH2; linker 2-6 via mXylylene; N-terminus assumed); < 5.00
CC[C@H](C)[C@@H]1NC(=O)[C@H](CO)NC(=O)[C@H](CCC(=O)O)NC(=O)CCSCc2cccc(c2)CSC[C@@H](C(=O)N[C@@H](CCCNC(=N)N)C(=O)N[C@H](C(N)=O)C(C)C)NC1=O [Compound R2051, [mXylyl(1,5)](des-NH2)C-ESICRV-NH2] ([Mpa]ESICRV-NH2; linker 1-5 via mXylylene); < 4.00

Q: I would be grateful if you could share the reported pIC50 for CC(=O)N[C@H]1CSCc2cccc(c2)CSC[C@@H](C(=O)N[C@@H](CCCNC(=N)N)C(=O)N[C@H](C(N)=O)C(C)(C)C)NC(=O)[C@H](c2ccccc2)NC(=O)[C@H](CO)NC(=O)[C@H](C)NC1=O [Compound R2036, [mXylyl(1,5)]Ac-CAS-Phg-CR-Tbg-NH2] (Ac-CAS[Phg]CR[Tle]-NH2; linker 1-5 via mXylylene) .
A: < 5.15

* * *

Reported IC50 values are given for each entry in this list.
Target: human plasma kallikrein (Homo sapiens)
Construct: purchased Enzyme Research Laboratories HPKa 1303
Test: Enzyme inhibition assay (fluorogenic substrate H-Pro-Phe-Arg-AMC)
Assay type: biochemical
Details: Kallikrein inhibitory activity; 1 nM activated human kallikrein, 500 μM H-Pro-Phe-Arg-AMC, 1 hour room temperature; read-out: Avg. IC50
Numbered stars: 1 amine (or outer) side, 2 acyl side, 3 side chain; on linkers, the order of the positions; unused ones are H or OH. Bridge positions count the residues as written; N and C are the ends. Square brackets hold non-standard residues; d marks the D form. Peptide text beside a SMILES is read from it. * marks the point of attachment. Phe(4-CH2NH2) = NCc1ccc(C[C@H](N)C(=O)O)cc1; mXylylene = c1cc(C[*:1])cc(C[*:2])c1; X8 = CC(C)(C)[C@H](N*)c1ccccn1; Chg = N[C@H](C(=O)O)C1CCCCC1; Nva = CCC[C@H](N)C(=O)O; Mpa = O=C(O)CCS
Answer format: numeric, nM implied, no suffix.

Q: I would be grateful if you could share the reported IC50 for CC(C)(C)[C@H](NC(=O)[C@H](CCCNC(=N)N)NC(=O)[C@@H]1CSCc2cccc(c2)CSCCC(=O)N2CCC[C@H]2C(=O)N[C@@H](C2CCCCC2)C(=O)N1)c1ccccn1 [Compound R2196] ([Mpa]P[Chg]CR-X8; linker 1-4 via mXylylene) .
A: 35.6

Q: Then CCC[C@H](N)C(=O)N[C@H]1CSCc2cccc(c2)CSC[C@@H](C(=O)N[C@@H](Cc2ccc(CN)cc2)C(=O)N[C@H](C(N)=O)C(C)C)NC(=O)[C@H]([C@@H](C)CC)NC(=O)[C@H](CO)NC(=O)[C@H](CCC(=O)O)NC1=O [Compound R2021] (H-[Nva]CESIC[Phe(4-CH2NH2)]V-NH2; linker 2-6 via mXylylene) ?
A: 2000
